assay: Pharmacokinetic study in Rhesus monkeys, intravenous (IV) administration; format: in vivo; settings: male, rhesus monkey, plasma, IV administration at 0.5 mg/kg
Assay Metric: half-life (h)

I: CCS(=O)(=O)N1CC(CC#N)(n2cc(-c3ncnc4[nH]ccc34)cn2)C1 [Baricitinib, reference compound]
II: CCS(=O)(=O)N1CC(CC#N)(n2cc(-c3ccnc4[nH]ccc34)cn2)C1 [Compound 8]
Enquiry: I'm curious whether I or II has the smaller half-life number. Which is it? State your choice using its label.
Return: I
(I: 1.38 h, II: 5.29 h)

* * *

Documented IC50 across a set of compounds
target: TYK2 (Homo sapiens (Human)); experiment: TYK2 enzymatic inhibition assay (LanthaScreen TR-FRET); assay type: biochemical
Sequence (P29597 whole entry): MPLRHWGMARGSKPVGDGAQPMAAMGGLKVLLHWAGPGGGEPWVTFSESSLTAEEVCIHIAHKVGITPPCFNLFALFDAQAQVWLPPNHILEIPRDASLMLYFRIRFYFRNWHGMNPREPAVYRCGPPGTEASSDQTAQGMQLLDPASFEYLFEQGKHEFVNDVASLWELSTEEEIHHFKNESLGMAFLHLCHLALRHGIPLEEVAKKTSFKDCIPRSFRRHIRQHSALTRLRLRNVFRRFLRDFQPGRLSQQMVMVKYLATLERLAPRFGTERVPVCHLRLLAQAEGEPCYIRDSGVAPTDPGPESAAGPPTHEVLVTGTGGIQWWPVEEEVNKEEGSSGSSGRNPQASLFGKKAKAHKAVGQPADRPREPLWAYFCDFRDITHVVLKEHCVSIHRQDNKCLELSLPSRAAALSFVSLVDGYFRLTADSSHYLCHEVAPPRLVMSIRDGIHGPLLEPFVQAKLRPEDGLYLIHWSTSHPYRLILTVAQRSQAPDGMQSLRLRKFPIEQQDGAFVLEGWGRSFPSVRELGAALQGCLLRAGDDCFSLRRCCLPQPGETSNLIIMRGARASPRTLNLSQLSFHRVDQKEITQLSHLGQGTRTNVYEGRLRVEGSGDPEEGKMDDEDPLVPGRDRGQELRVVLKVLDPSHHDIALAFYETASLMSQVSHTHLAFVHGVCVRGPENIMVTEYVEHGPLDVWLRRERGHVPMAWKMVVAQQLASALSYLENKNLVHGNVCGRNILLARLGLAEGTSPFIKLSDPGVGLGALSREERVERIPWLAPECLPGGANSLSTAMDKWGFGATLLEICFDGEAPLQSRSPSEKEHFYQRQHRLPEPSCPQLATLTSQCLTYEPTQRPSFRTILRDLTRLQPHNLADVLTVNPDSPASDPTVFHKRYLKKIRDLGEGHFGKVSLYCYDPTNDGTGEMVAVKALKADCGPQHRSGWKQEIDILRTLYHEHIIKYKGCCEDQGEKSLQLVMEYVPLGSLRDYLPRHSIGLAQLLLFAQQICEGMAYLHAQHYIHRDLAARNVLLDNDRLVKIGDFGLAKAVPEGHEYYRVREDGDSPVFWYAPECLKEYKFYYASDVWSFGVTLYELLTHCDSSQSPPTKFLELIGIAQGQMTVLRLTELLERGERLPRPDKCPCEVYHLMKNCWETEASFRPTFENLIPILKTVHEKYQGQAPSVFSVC

Example entries begin here.
CCS(=O)(=O)N1CC(CC#N)(n2cc(-c3c(C#N)cnc4[nH]ccc34)cn2)C1    27 nM
N#CCC1(n2cc(-c3ccnc4[nH]ccc34)cn2)CN(S(=O)(=O)CCC(F)(F)F)C1    58.2 nM
CC(C)CS(=O)(=O)N1CC(CC#N)(n2cc(-c3ccnc4[nH]ccc34)cn2)C1    > 30 nM
CC(C)S(=O)(=O)N1CC(CC#N)(n2cc(-c3c(C#N)cnc4[nH]ccc34)cn2)C1    > 30 nM
CCS(=O)(=O)N1CC(CC#N)(n2cc(-c3ccnc4[nH]ccc34)cn2)C1    27.3 nM

Enquiry: Given the compound `CCS(=O)(=O)N1CC([C@H](C)C#N)(n2cc(-c3ncnc4[nH]ccc34)cn2)C1` , write its reported IC50.
Return: ~30 nM

Enquiry: Given the compound `N#CCC1(n2cc(-c3ccnc4[nH]ccc34)cn2)CN(S(=O)(=O)N2CCCC2)C1` , write its reported IC50.
Return: > 30 nM

Enquiry: Given the compound `CCS(=O)(=O)N1CC([C@@H](C)C#N)(n2cc(-c3c(C#N)cnc4[nH]ccc34)cn2)C1` , write its reported IC50.
Return: ~30 nM

Enquiry: Given the compound `CCS(=O)(=O)N1CC(CC#N)(n2cc(-c3ccnc4[nH]ccc34)c(C)n2)C1` , write its reported IC50.
Return: ~30 nM

Enquiry: Given the compound `CCS(=O)(=O)N1CC([C@H](C)C#N)(n2cc(-c3c(C#N)cnc4[nH]ccc34)cn2)C1` , write its reported IC50.
Return: ~30 nM

* * *

assay: Pharmacokinetic study in rats, gavage (PO) administration; assay type: in vivo; conditions: male, SD, rat, plasma, po, gavage administration at 5 mg/kg, 0-24 h
Assay Metric: AUC(0-t) (ng·h/mL)

CCS(=O)(=O)N1CC(CC#N)(n2cc(-c3ncnc4[nH]ccc34)cn2)C1 [Baricitinib, reference compound]    3050
CS(=O)(=O)N1CC(CC#N)(n2cc(-c3ccnc4[nH]ccc34)cn2)C1 [Compound 19]    5030
CCS(=O)(=O)N1CC(CC#N)(n2cc(-c3c(C#N)cnc4[nH]ccc34)cn2)C1 [Compound 5]    3150

a: CCS(=O)(=O)N1CC(CC#N)(n2cc(-c3ccnc4[nH]ccc34)cn2)C1 [Compound 8]
b: N#CCC1(n2cc(-c3ccnc4[nH]ccc34)cn2)CN(S(=O)(=O)CCC(F)(F)F)C1 [Compound 30]
Enquiry: For the two items a and b , which reports the higher AUC(0-t) value? State your choice using its label.
Return: b
(b: 32200 ng·h/mL, a: 14100 ng·h/mL)

* * *

assay: Pharmacokinetic study in Rhesus monkeys, gavage (PO) administration; type: in vivo; conditions: male, rhesus monkey, plasma, PO administration at 1 mg/kg
Assay Metric: bioavailability (%)

a: CCS(=O)(=O)N1CC(CC#N)(n2cc(-c3ccnc4[nH]ccc34)cn2)C1
b: CCS(=O)(=O)N1CC(CC#N)(n2cc(-c3ncnc4[nH]ccc34)cn2)C1 [Baricitinib, reference compound]
Enquiry: I'm curious whether a or b has the smaller bioavailability number. Which is it? State your choice using its label.
Return: b

* * *

molecular target: JAK2 (Homo sapiens (Human), UniProt O60674); test: JAK2 enzymatic inhibition assay (ADP-Glo luminescence); assay type: biochemical; settings: Hydrochloride Salt
Sequence (O60674 whole entry): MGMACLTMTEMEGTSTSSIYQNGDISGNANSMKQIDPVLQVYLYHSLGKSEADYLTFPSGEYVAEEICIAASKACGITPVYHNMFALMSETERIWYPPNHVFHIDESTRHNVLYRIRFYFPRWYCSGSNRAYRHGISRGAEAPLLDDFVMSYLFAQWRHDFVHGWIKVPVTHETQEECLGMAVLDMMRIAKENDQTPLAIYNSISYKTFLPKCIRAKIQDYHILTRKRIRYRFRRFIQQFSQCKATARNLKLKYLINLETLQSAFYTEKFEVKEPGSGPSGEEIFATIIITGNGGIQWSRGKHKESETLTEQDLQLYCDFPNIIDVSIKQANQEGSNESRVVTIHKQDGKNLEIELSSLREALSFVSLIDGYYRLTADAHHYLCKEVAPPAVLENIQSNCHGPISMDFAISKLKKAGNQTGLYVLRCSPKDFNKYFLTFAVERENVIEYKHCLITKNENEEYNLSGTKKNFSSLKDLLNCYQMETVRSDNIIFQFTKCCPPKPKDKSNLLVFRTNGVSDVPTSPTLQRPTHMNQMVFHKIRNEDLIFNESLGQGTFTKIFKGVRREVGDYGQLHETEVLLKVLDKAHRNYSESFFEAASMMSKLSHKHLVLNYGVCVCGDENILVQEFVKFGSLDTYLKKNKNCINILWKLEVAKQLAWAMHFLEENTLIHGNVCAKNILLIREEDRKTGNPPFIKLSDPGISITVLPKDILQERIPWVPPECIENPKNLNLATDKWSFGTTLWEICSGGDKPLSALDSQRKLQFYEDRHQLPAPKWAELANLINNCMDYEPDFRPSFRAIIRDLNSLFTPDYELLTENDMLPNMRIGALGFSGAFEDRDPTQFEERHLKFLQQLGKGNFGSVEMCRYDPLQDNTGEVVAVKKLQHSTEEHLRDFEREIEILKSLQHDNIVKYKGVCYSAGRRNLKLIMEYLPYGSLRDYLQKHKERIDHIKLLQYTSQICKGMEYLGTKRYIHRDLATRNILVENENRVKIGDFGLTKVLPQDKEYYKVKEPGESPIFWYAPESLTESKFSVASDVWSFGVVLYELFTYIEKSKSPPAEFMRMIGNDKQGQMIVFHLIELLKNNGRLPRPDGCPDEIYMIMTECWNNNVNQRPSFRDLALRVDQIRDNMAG
Counter-ions that a name gives are not always drawn.
Assay Metric: IC50 (nM)

A: CCS(=O)(=O)N1CC(CC#N)(n2cc(-c3c(F)cnc4[nH]ccc34)cn2)C1 [Compound 52-HCl]
B: CCS(=O)(=O)N1CC(CC#N)(n2cc(-c3c(Cl)cnc4[nH]ccc34)cn2)C1 [Compound 50-HCl]
Enquiry: I'm curious whether A or B has the smaller IC50 number. Which is it? State your choice using its label.
Return: A

* * *

experiment: Pharmacokinetic study in Rhesus monkeys, gavage (PO) administration; assay type: in vivo; conditions: male, rhesus monkey, plasma, PO administration at 1 mg/kg, 0-24 h
Assay Metric: AUC(0-t) (ng·h/mL)

A: CCS(=O)(=O)N1CC(CC#N)(n2cc(-c3ccnc4[nH]ccc34)cn2)C1
B: CCS(=O)(=O)N1CC(CC#N)(n2cc(-c3ncnc4[nH]ccc34)cn2)C1 [Baricitinib, reference compound]
Enquiry: I'm curious whether A or B has the smaller AUC(0-t) number. Which is it? State your choice using its label.
Return: B
(B: 994 ng·h/mL, A: 2600 ng·h/mL)

* * *

assay: Pharmacokinetic study in rats, intravenous (IV) administration; type: in vivo; details: male, SD, rat, plasma, IV administration at 1 mg/kg, read-out: T½ (converted)
Assay Metric: half-life (h)

Example entries begin here.
CCS(=O)(=O)N1CC(CC#N)(n2cc(-c3c(C#N)cnc4[nH]ccc34)cn2)C1    0.997
CCS(=O)(=O)N1CC(CC#N)(n2cc(-c3ncnc4[nH]ccc34)cc2C#N)C1    1.67

P: CCS(=O)(=O)N1CC(CC#N)(n2cc(-c3ccnc4[nH]ccc34)cn2)C1
Q: CCS(=O)(=O)N1CC(CC#N)(n2cc(-c3ncnc4[nH]ccc34)cn2)C1 [Baricitinib, reference compound]
R: CS(=O)(=O)N1CC(CC#N)(n2cc(-c3ccnc4[nH]ccc34)cn2)C1
S: N#CCC1(n2cc(-c3ccnc4[nH]ccc34)cn2)CN(S(=O)(=O)CCC(F)(F)F)C1
Enquiry: // ascending sort on recorded half-life Answer format: list of labels, ordered as asked.
Return: Q, S, P, R

* * *

biological target: JAK1 (Homo sapiens (Human), UniProt P23458); experiment: JAK1 enzymatic inhibition assay (ADP-Glo luminescence); assay type: biochemical
Sequence (P23458 whole entry): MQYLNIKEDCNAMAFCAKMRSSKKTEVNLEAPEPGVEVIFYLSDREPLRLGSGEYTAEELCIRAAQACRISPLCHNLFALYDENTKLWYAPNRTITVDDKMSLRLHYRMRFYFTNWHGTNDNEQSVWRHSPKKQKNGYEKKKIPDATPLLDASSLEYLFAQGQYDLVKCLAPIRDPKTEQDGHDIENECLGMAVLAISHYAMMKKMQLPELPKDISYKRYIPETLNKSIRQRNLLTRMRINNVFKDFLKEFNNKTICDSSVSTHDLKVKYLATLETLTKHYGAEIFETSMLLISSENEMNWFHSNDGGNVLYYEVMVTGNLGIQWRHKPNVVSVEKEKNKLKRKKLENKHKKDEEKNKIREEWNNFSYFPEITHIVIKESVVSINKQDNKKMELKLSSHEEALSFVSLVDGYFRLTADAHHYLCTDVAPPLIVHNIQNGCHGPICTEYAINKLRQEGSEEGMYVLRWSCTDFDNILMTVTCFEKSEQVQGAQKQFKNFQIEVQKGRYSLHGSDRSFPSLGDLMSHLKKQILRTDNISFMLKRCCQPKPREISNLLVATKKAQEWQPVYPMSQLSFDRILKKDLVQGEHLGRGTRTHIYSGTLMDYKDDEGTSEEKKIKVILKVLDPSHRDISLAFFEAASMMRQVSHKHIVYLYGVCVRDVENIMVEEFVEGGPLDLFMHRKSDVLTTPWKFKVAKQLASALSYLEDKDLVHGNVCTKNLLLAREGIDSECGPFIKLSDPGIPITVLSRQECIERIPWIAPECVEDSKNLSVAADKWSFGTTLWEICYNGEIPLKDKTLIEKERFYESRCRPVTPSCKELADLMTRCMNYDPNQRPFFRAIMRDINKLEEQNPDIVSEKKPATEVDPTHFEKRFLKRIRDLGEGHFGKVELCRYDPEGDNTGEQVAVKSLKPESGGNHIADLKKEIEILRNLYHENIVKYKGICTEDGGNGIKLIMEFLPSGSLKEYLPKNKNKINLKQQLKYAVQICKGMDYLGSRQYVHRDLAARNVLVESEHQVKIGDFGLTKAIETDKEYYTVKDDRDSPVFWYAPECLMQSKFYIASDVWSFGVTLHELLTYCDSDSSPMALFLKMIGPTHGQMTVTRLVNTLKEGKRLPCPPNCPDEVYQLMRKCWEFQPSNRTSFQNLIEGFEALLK
Assay Metric: IC50 (nM)

CS(=O)(=O)N1CC(CC#N)(n2cc(-c3ccnc4[nH]ccc34)cn2)C1    0.69
CCS(=O)(=O)N1CC(C(C)C#N)(n2cc(-c3c(C#N)cnc4[nH]ccc34)cn2)C1 (centres unmarked)    1.66
N#CCC1(n2cc(-c3ccnc4[nH]ccc34)cn2)CN(S(=O)(=O)CCC(F)(F)F)C1    2.22

a: N#CCC1(n2cc(-c3ccnc4[nH]ccc34)cn2)CN(S(=O)(=O)C2CC2)C1
b: CCS(=O)(=O)N1CC(CC#N)(n2cc(-c3ccnc4[nH]ccc34)c(C)n2)C1
Enquiry: For the two items a and b , which reports the higher IC50 value? State your choice using its label.
Return: b
(b: 2.89 nM, a: 0.46 nM)

* * *

assay: Pharmacokinetic study in rats, intravenous (IV) administration; assay type: in vivo; conditions: male, SD, rat, plasma, IV administration at 1 mg/kg, 0-24 h
Assay Metric: AUC(0-t) (ng·h/mL)

I: CC1(S(=O)(=O)N2CC(CC#N)(n3cc(-c4ccnc5[nH]ccc45)cn3)C2)CC1
II: CS(=O)(=O)N1CC(CC#N)(n2cc(-c3ccnc4[nH]ccc34)cn2)C1
Enquiry: I'm curious whether I or II has the smaller AUC(0-t) number. Which is it? State your choice using its label.
Return: I

* * *

assay: Pharmacokinetic study in rats, gavage (PO) administration; format: in vivo; details: male, SD, rat, plasma, PO administration at 0.5-5 mg/kg, read-out: bioavailability (F %)
Assay Metric: bioavailability (%)
Give your result in % as a bare value.

Enquiry: Given the compound CCS(=O)(=O)N1CC(CC#N)(n2cc(-c3ncnc4[nH]ccc34)cn2)C1 [Baricitinib, reference compound] , write its reported bioavailability.
Return: 55

* * *

Documented IC50 across a set of compounds
molecular target: CYP1A2 (Homo sapiens (Human)); test: CYP450 enzyme test, P450-Glo screening system, CYP1A2; type: in vitro ADME; settings: human
Sequence (P05177 whole entry): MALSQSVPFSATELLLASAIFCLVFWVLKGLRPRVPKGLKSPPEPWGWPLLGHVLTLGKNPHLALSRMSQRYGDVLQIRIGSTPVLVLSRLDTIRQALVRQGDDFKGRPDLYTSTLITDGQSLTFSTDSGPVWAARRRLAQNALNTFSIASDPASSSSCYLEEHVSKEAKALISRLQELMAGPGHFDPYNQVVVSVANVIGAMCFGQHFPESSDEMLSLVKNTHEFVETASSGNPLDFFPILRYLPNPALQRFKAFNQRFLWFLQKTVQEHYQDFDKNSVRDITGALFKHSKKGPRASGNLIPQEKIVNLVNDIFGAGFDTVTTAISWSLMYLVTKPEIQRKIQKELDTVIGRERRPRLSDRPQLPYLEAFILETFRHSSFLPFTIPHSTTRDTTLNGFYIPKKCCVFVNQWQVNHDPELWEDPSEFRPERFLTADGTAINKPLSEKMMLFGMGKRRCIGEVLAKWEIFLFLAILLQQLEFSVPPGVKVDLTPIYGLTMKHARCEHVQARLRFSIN

Example entries begin here.
CCS(=O)(=O)N1CC(CC#N)(n2cc(-c3ncnc4[nH]ccc34)cc2C#N)C1 [Compound 39]    > 10 µM
CCS(=O)(=O)N1CC(CC#N)(n2cc(-c3c(C#N)cnc4[nH]ccc34)cn2)C1 [Compound 5]    > 10 µM

Now, please, on to the next compound.
Enquiry: Given the compound CS(=O)(=O)N1CC(CC#N)(n2cc(-c3ccnc4[nH]ccc34)cn2)C1 [Compound 19] , write its reported IC50.
Return: > 10 µM
